tested on: TDF; test: cell number relative to DMSO (% of DMSO); higher = more cells (less growth inhibition / toxicity); conditions: concentration: 10 µM; 24 h;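 note: TDF denotes transformed human dermal fibroblasts of mesenchymal origin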
property label: cell number
Note: the reply should be a number with no unit written.

Some solved entries appear below for comparison.
CN1CCC2(CCN3CCc4c(oc5ccccc45)C3C2)N(C)C1=O.Cl (centres undefined) :: 91
Cl.Cl.Oc1ccc2c3c1OC1c4[nH]c5c(c4CC4(O)C(C2)N(CC2CC2)CCC314)CC1(O)C2Cc3ccc(O)c4c3C1(CCN2CC1CC1)C5O4 (centres undefined) [nor-Binaltorphimine dihydrochloride] :: 114
CC(C)c1cc2c(c(O)c1O)C1(C(=O)O)CCCC(C)(C)C1CC2 (centres undefined) :: 99.9

Could you now look at the following compound, please?
Enquiry: Would you kindly share the measured cell number for CC1OC1P(=O)([O-])[O-].[Na+].[Na+] (centres undefined) [Phosphomycin disodium] ?
Return: 91.3

Just for reference, the supplement of paper PMC7156485 is where these values come from.
